List of EC50 values.
target: hEP2/Gqs5 (Homo sapiens); construct: expressed in transfected cells; host or cells: HEK-293(EBNA); test: FLIPR calcium signal, HEK-293(EBNA) cells; type: cell-based; details: value outside the parentheses; read-out: Ca2+ Signal-EC50 (nM) EP2
Sequence (P43116 whole entry): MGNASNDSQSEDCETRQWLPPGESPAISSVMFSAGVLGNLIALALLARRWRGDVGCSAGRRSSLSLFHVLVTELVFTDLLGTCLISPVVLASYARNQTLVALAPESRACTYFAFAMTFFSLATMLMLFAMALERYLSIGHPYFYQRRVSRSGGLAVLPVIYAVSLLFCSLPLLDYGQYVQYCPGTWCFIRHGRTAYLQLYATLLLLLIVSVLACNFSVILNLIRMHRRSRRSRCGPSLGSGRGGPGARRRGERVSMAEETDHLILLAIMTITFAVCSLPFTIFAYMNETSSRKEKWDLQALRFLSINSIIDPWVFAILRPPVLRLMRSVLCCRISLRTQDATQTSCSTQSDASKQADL

COMPOUND: CCCCCC(O)c1ccc([C@@H]2[C@@H](C/C=C\CCCC(=O)O)[C@H](Cl)C[C@H]2Cl)cc1 (some centres unmarked)
EC50 (nM): 15
//
COMPOUND: CCCCCC(O)c1ccc([C@@H]2[C@@H](C/C=C\CCCC(=O)O)[C@H](Cl)C[C@@H]2Cl)cc1 (some centres unmarked)
EC50 (nM): 427
